Hi there, I'd appreciate the recorded dH for every entry that follows.
system: T1, TPR domain of AtToc64 with a C-terminal hexa-histidine tag (AtToc64_TPR-H6) (Arabidopsis thaliana, UniProt Q9LVH5 474-589)
T1 construct: Toc64 (AtToc64) from Arabidopsis thaliana, TPR domain, residues 474-589 of the full-length protein (NP_188424, At3g17970); Cloned with NcoI/XhoI into pETM10; also called TPR domain of Toc64 from Arabidopsis thaliana; source: E. coli BL21(DE3), purified (Ni-NTA, size exclusion chromatography); not shown: His6, C-terminal, kept
T1 sequence (looked up): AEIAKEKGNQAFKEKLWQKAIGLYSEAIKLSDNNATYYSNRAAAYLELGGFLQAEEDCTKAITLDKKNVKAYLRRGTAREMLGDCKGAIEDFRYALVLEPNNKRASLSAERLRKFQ
protocolText: ITC; peptide (6-14 mM) titrated into 1.4 ml of protein (0.1-0.3 mM) in the cell; 20°C; 25 mM Hepes, 100 mM KCl, pH 7.3; 30 injections of 10 µL; 1:1 binding model with N, Kd and ΔH floating
recordedConditions: both partners purified
Give bare numbers, in kcal/mol.

Worked cases, dH given:
- IEEVD (C-terminal pentapeptide of Hsp70; also called C70_C5; Hsp70 pentapeptide; source: synthetic peptide (Biomatik, >85% purity)) [C-terminal pentapeptide of Hsp70, Hsp70_C5 (IEEVD)]: -1.63
- MEEVD (C-terminal pentapeptide of Hsp90; also called C90_C5; Hsp90 pentapeptide; source: synthetic peptide (Biomatik, >85% purity)) [C-terminal pentapeptide of Hsp90, Hsp90_C5 (MEEVD)]: -2.68
- GPTIEEVD (C-terminal octapeptide of Hsp70; also called Hsp70 octapeptide; C70_C8; source: synthetic peptide (Biomatik, >85% purity)) [C-terminal octapeptide of Hsp70 (GPTIEEVD)]: -1

Consider now this further binder.
Query: Quick one: dH of TSRMEEVD (C-terminal octapeptide of Hsp90; also called Hsp90 octapeptide; C90_C8; source: synthetic peptide (Biomatik, >85% purity)) [C-terminal octapeptide of Hsp90 (TSRMEEVD)] ?
Reply: -6.18
